So I've got a bunch of molecules here, and I need their AC40 values.
# Tested target: Endoplasmic reticulum aminopeptidase 1 (Homo sapiens) (UniProt Q9NZ08)
# Sequence (Q9NZ08 whole entry, looked up): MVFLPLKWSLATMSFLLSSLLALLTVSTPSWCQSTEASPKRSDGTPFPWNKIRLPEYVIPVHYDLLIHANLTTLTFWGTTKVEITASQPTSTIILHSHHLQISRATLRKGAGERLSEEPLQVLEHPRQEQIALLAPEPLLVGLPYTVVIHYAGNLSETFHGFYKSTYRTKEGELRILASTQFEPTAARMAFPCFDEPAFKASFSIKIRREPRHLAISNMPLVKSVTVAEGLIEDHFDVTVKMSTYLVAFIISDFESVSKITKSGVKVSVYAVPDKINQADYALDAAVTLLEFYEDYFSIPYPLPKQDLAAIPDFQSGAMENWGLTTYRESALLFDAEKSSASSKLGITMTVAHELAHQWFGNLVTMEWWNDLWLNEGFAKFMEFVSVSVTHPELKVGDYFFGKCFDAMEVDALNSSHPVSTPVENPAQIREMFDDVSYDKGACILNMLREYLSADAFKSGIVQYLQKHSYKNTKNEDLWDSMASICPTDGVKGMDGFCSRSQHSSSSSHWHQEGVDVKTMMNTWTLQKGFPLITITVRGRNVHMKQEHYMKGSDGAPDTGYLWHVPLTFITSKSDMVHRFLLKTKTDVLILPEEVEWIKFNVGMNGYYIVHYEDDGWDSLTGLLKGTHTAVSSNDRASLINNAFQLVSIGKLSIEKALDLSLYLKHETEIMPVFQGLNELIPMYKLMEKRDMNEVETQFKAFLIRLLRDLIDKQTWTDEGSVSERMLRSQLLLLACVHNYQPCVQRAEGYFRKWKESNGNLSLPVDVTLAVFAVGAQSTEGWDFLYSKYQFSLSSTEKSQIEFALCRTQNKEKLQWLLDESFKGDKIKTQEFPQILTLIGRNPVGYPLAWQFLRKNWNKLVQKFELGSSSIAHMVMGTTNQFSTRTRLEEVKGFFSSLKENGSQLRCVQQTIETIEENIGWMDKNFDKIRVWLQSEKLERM
# Method: ERAP1 aminopeptidase activity change, dose response, biochemical, fluorescence, cherry-pick (AID 743317)
# Test parameters: ERAP1 enzyme, Leu-AMC fluorescence, 60 min
Results filed as inconclusive are left out.

Query :: Find the measured AC40 of `COc1ccc(CN(C)C[C@@H]2OCCCC[C@H](C)Oc3ccc(NS(=O)(=O)c4cccs4)cc3C(=O)N([C@@H](C)CO)C[C@@H]2C)cc1` and report it.
Result :: 1.19 µM

Query :: Supply reported AC40 belonging to this molecule: `CCCN(C)C[C@@H]1OCCCC[C@@H](C)Oc2ccc(NS(=O)(=O)c3ccc(C)cc3)cc2C(=O)N([C@H](C)CO)C[C@@H]1C`
Result :: 1.42 µM

Query :: Answer with the recorded AC40 for the molecule listed here: `COc1ccc(CN(C)C[C@H]2OCCCC[C@@H](C)Oc3ccc(NS(=O)(=O)c4cccs4)cc3C(=O)N([C@H](C)CO)C[C@H]2C)cc1`
Result :: 1.23 µM

Query :: # return recorded AC40 for entry `Cc1noc(C)c1NC(=O)Nc1ccc2c(c1)C(=O)N([C@H](C)CO)C[C@@H](C)[C@@H](CN(C)Cc1ccc(C(F)(F)F)cc1)OCCCC[C@@H](C)O2`
Result :: 2.77 µM

Query :: Name the recorded AC40 of the molecule listed here: `C[C@@H]1CCCCO[C@@H](CN(C)S(C)(=O)=O)[C@@H](C)CN([C@@H](C)CO)C(=O)c2cc(NS(=O)(=O)c3ccc(Cl)cc3)ccc2O1`
Result :: 0.266 µM

Query :: Retrieve AC40 measured for `C[C@@H]1CCCCO[C@H](CN(C)C)[C@H](C)CN([C@H](C)CO)C(=O)c2cc(NS(=O)(=O)c3ccc(Cl)cc3)ccc2O1` and print it.
Result :: 0.548 µM

Query :: Complete the entry with AC40 for `COc1ccc(CN(C)C[C@@H]2OCCCC[C@@H](C)Oc3ccc(NS(=O)(=O)c4c(C)noc4C)cc3C(=O)N([C@@H](C)CO)C[C@@H]2C)cc1`
Result :: 1.88 µM

Query :: Identify AC40 associated with the molecule `CCCN(C)C[C@@H]1OCCCC[C@@H](C)Oc2ccc(NS(=O)(=O)c3ccc(C)cc3)cc2C(=O)N([C@@H](C)CO)C[C@@H]1C`
Result :: 0.133 µM

Query :: # return recorded AC40 for entry `COc1ccc(NC(=O)Nc2ccc3c(c2)C(=O)N([C@@H](C)CO)C[C@@H](C)[C@H](CN(C)Cc2ccc(C(=O)O)cc2)OCCCC[C@H](C)O3)cc1`
Result :: 3.74 µM

Query :: Give a short answer stating reported AC40 for `C[C@@H]1CCCCO[C@H](CN(C)Cc2ccc(C(=O)O)cc2)[C@H](C)CN([C@@H](C)CO)C(=O)c2cc(NC(=O)Nc3ccc(C(F)(F)F)cc3)ccc2O1` .
Result :: 0.0919 µM

Query :: Fill in AC40 for record `CO[C@@H]1CN(C)C(=O)c2ccc(NC(=O)Nc3cccc(Cl)c3)cc2OC[C@@H](C)NC[C@H]1C`
Result :: 1.41 µM

Query :: Provide only the value of recorded AC40 for `CNC[C@H]1Oc2c(NC(=O)Nc3ccc(C(F)(F)F)cc3)cccc2C(=O)N([C@@H](C)CO)C[C@@H]1C`
Result :: 0.646 µM

Query :: Using the record for `Cc1noc(C)c1NC(=O)N(C)C[C@@H]1Oc2c(NC(=O)Nc3ccc(F)cc3)cccc2C(=O)N([C@H](C)CO)C[C@@H]1C` , state its measured AC40.
Result :: 5.64 µM
